Origin of values: patent US20090304692A1

target: UniProt:P42345; test: mTOR kinase assay (DELFIA format, purified enzyme); type: biochemical; settings: read-out: IC50 mTOR
Sequence (P42345 1360-2549 limits assumed): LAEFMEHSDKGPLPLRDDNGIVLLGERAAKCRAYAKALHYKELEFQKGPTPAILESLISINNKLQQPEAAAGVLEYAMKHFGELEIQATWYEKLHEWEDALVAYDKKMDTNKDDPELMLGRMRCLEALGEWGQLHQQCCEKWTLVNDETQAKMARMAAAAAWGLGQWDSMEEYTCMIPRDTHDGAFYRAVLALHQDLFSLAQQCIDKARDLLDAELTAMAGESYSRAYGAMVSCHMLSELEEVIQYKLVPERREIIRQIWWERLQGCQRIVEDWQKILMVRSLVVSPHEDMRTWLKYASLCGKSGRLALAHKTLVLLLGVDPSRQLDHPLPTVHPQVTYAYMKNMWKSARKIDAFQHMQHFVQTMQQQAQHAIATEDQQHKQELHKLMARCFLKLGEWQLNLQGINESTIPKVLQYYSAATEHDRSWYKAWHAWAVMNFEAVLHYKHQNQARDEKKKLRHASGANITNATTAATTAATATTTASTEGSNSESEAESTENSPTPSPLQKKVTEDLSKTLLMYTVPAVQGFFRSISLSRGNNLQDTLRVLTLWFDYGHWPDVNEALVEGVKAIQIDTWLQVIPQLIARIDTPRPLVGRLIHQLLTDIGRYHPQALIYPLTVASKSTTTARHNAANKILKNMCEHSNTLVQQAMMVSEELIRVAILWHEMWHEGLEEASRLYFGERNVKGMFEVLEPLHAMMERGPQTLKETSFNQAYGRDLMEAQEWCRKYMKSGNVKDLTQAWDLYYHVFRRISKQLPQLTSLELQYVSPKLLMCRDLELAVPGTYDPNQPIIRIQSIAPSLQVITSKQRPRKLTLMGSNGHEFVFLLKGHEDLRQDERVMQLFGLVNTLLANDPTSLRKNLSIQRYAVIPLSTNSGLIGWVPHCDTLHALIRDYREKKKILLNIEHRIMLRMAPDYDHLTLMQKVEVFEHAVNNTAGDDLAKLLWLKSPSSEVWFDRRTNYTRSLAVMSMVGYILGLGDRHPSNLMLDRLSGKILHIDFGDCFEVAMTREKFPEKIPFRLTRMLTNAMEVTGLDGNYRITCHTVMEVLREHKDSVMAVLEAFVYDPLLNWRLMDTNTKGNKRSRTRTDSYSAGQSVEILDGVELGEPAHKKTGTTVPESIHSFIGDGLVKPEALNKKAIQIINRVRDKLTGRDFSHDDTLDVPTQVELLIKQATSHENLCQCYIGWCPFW
pIC50: −log10 of the molar value.
The label depends only on pIC50: Condition met if it is at least 8, Condition not met if it is smaller.

>>> category_label("O=C(Nc1ccc(C(=O)N2CCNCC2)cc1)Nc1ccc(-c2nc(NS(=O)(=O)c3ccccc3)nc(N3CCOCC3)n2)cc1 [Example 785]")
"Condition not met"
>>> category_label("Cc1nc(-c2ccc(NC(=O)Nc3ccc(C(=O)N(C)CCN(C)C)cc3)cc2)nc(N2CCOCC2)n1 [Example 165]")
"Condition not met"
>>> category_label("CNC(=O)Nc1ccc(-c2nc(-c3ccc(NC(=O)Nc4ccncc4)cc3)nc(N3C(C)COCC3C)n2)cc1 (stereo not drawn) [Example 472]")
"Condition not met"
>>> category_label("O=C(Nc1ccc(C(=O)NCCN2CCCC2)cc1)Nc1ccc(-c2nc(N3CCOCC3)nc(N3C4CCC3COC4)n2)cc1 [Example 758]")
"Condition met"
>>> category_label("CC(C)N1CCN(C(=O)c2ccc(NC(=O)Nc3ccc(-c4nc(N5CCOC[C@H]5C)nc(N5CCOC[C@H]5C)n4)cc3)cc2)CC1 [Example 451]")
"Condition met"
>>> category_label("COC(=O)c1ccc(NC(=O)Nc2ccc(-c3nc(N4CCOC[C@@H]4C)nc(N4CCOC[C@@H]4C)n3)cc2)cc1 [Example 540]")
"Condition met"
>>> category_label("CN(C)CCN(C)C(=O)c1ccc(NC(=O)Nc2ccc(-c3nc(N4CCOCC4)nc(N4C5COCC4COC5)n3)cc2)cc1 [Example 768]")
"Condition met"
>>> category_label("C[C@H]1COCCN1c1nc(-c2ccc(NC(=O)Nc3ccncc3)cc2)nc(N2C3CCC2COC3)n1 [Example 829]")
"Condition not met"
